test-system: Calcium/calmodulin-dependent protein kinase type II subunit delta (Homo sapiens, UniProt Q13557)
assay-procedure: CaMK2delta(CA2DCGT1) Takeda global kinase panel
measure-name: pIC50
The read-out pIC50 is expressed as -log10 of concentration in moles per litre.

q: Look up pIC50 for this molecule: CN1C(=O)[C@@H](N2CCc3cn(CC4CCS(=O)(=O)CC4)nc3C2=O)COc2ccccc21 [TP-030n]
a: 6.00

###

Cyclin-dependent kinase 16 (Homo sapiens, UniProt Q00536): recorded IC50 for assorted compounds
Answer format: numeric, nM implied, no suffix.

compound	value
CN1C(=O)[C@@H](N2CCc3cn(Cc4ccccc4)nc3C2=O)COc2ccccc21	1000

q: Look up IC50 for this compound: CN1C(=O)[C@@H](N2CCc3cn(CC4CCS(=O)(=O)CC4)nc3C2=O)COc2ccccc21 [TP-030n]
a: 1000

###

Serine/threonine-protein kinase TNNI3K (Homo sapiens, UniProt Q59H18): recorded IC50 for assorted compounds
Sequence (Q59H18 whole entry): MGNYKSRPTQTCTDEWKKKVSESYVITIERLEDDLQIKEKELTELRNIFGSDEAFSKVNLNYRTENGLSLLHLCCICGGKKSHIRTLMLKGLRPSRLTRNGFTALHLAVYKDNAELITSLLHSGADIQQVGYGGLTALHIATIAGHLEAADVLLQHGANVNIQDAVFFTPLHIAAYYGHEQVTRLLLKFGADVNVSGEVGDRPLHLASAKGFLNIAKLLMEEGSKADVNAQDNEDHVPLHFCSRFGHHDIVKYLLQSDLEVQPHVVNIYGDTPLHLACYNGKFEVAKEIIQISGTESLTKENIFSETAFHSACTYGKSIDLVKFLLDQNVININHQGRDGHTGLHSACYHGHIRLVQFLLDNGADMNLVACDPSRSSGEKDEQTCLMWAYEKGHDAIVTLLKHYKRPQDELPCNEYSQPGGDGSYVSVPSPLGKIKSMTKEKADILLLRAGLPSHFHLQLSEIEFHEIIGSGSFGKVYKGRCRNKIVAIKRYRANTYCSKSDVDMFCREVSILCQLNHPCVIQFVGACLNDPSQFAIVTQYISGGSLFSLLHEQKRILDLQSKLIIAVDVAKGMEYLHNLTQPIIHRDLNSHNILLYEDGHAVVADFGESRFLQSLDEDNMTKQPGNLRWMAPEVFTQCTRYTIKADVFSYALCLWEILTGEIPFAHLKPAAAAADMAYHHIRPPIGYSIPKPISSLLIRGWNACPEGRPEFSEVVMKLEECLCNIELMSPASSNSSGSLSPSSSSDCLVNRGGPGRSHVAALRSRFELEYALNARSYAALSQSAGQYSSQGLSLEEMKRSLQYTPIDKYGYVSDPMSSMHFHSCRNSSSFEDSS
Answer format: numeric, nM implied, no suffix.

compound	value
CN1C(=O)[C@@H](N2CCc3cn(Cc4ccccc4)nc3C2=O)COc2ccccc21 [TP-030-1]	1000

q: Look up IC50 for this compound: CN1C(=O)[C@@H](N2CCc3cn(CC4CCS(=O)(=O)CC4)nc3C2=O)COc2ccccc21 [TP-030n]
a: 1000

###

test-system: cAMP-dependent protein kinase catalytic subunit gamma (Homo sapiens)
Sequence (P22612 whole entry): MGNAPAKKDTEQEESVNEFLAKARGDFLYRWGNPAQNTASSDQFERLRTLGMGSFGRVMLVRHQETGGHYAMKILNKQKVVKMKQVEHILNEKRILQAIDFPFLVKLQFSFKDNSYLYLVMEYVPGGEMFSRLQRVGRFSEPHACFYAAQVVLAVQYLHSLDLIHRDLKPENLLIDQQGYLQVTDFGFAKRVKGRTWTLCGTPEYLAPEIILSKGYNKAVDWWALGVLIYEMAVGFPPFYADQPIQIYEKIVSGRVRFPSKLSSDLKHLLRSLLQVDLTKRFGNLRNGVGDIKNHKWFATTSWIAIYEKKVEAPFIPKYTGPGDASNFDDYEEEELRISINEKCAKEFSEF
assay-procedure: PKAgamma(PRCGLGY1) Takeda global kinase panel
measure-name: pIC50
The read-out pIC50 is expressed as -log10 of concentration in moles per litre.

q: Look up pIC50 for this compound: CN1C(=O)[C@@H](N2CCc3cn(CC4CCS(=O)(=O)CC4)nc3C2=O)COc2ccccc21 [TP-030n]
a: 6.00

###

Bone morphogenetic protein receptor type-1B (Homo sapiens, UniProt O00238): recorded pIC50 for assorted compounds
The read-out pIC50 is expressed as -log10 of concentration in moles per litre.

q: Look up pIC50 for this compound: CN1C(=O)[C@@H](N2CCc3cn(CC4CCS(=O)(=O)CC4)nc3C2=O)COc2ccccc21 [TP-030n]
a: 6.00

q: Param item: `CN1C(=O)[C@@H](N2CCc3cn(Cc4ccccc4)nc3C2=O)COc2ccccc21`
a: 6.00

###

List of IC50 values.
test-system: Receptor-interacting serine/threonine-protein kinase 3 (Homo sapiens, UniProt Q9Y572)
Sequence (Q9Y572 whole entry): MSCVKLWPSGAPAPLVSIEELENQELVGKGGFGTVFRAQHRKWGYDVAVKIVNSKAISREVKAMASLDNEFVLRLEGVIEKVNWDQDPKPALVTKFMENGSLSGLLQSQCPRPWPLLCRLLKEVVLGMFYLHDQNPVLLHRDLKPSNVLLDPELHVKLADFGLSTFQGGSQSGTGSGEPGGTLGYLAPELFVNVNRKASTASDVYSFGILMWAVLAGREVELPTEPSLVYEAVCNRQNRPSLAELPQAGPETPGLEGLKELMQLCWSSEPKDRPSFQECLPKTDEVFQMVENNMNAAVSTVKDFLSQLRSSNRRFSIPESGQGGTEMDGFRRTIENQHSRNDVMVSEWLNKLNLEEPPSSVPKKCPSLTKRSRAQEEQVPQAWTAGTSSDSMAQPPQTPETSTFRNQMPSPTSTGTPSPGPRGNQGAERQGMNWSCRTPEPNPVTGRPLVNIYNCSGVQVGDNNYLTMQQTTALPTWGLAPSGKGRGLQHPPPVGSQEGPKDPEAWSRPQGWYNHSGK
Answer format: numeric, nM implied, no suffix.

compound	result-unit	IC50
CN1C(=O)[C@@H](N2CCc3cn(CC4CCS(=O)(=O)CC4)nc3C2=O)COc2ccccc21 [TP-030n]	nM	1000

Could you now look at the following compound, please?
q: Look up IC50 for this compound: `CN1C(=O)[C@@H](N2CCc3cn(Cc4ccccc4)nc3C2=O)COc2ccccc21`
a: 1000

###

Serine/threonine-protein kinase SBK1 (Homo sapiens): recorded IC50 for assorted molecules
Answer format: numeric, nM implied, no suffix.

molecule	measure-name	value
CN1C(=O)[C@@H](N2CCc3cn(Cc4ccccc4)nc3C2=O)COc2ccccc21 [TP-030-1]	IC50	1000

q: Look up IC50 for this molecule: CN1C(=O)[C@@H](N2CCc3cn(CC4CCS(=O)(=O)CC4)nc3C2=O)COc2ccccc21 [TP-030n]
a: 1000

###

test-system: Dual specificity mitogen-activated protein kinase kinase 1 (Homo sapiens)
assay-procedure: MEK1 [MAP2K1(M2K1LGF1)] Takeda global kinase panel
measure-name: IC50

compound	test-system	value
CN1C(=O)[C@@H](N2CCc3cn(CC4CCS(=O)(=O)CC4)nc3C2=O)COc2ccccc21 [TP-030n]	Dual specificity mitogen-activated protein kinase kinase 1 (Homo sapiens)	1000 nM

Could you now look at the following compound, please?
q: Look up IC50 for this compound: `CN1C(=O)[C@@H](N2CCc3cn(Cc4ccccc4)nc3C2=O)COc2ccccc21`
a: 1000 nM

###

test-system: Casein kinase II subunit alpha' (Homo sapiens)
Sequence (P19784 whole entry): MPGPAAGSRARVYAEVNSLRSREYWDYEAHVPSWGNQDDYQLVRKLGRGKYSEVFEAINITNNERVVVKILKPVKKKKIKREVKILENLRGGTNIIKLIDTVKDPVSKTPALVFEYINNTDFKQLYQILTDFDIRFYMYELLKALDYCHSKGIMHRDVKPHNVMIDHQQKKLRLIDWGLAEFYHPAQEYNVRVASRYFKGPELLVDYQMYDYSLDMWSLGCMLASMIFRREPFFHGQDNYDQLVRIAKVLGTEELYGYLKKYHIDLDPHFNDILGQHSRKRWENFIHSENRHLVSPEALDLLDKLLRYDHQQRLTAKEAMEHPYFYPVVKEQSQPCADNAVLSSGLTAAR
assay-procedure: CK2alpha2(C2A2LGK1) Takeda global kinase panel
measure-name: pIC50
The read-out pIC50 is expressed as -log10 of concentration in moles per litre.

compound	measure-name	value
CN1C(=O)[C@@H](N2CCc3cn(CC4CCS(=O)(=O)CC4)nc3C2=O)COc2ccccc21 [TP-030n]	pIC50	6.00

Could you now look at the following compound, please?
q: Look up pIC50 for this compound: `CN1C(=O)[C@@H](N2CCc3cn(Cc4ccccc4)nc3C2=O)COc2ccccc21`
a: 6.00

###

Serine/threonine-protein kinase/endoribonuclease IRE1 (Homo sapiens): recorded pIC50 for assorted molecules
Sequence (O75460 whole entry): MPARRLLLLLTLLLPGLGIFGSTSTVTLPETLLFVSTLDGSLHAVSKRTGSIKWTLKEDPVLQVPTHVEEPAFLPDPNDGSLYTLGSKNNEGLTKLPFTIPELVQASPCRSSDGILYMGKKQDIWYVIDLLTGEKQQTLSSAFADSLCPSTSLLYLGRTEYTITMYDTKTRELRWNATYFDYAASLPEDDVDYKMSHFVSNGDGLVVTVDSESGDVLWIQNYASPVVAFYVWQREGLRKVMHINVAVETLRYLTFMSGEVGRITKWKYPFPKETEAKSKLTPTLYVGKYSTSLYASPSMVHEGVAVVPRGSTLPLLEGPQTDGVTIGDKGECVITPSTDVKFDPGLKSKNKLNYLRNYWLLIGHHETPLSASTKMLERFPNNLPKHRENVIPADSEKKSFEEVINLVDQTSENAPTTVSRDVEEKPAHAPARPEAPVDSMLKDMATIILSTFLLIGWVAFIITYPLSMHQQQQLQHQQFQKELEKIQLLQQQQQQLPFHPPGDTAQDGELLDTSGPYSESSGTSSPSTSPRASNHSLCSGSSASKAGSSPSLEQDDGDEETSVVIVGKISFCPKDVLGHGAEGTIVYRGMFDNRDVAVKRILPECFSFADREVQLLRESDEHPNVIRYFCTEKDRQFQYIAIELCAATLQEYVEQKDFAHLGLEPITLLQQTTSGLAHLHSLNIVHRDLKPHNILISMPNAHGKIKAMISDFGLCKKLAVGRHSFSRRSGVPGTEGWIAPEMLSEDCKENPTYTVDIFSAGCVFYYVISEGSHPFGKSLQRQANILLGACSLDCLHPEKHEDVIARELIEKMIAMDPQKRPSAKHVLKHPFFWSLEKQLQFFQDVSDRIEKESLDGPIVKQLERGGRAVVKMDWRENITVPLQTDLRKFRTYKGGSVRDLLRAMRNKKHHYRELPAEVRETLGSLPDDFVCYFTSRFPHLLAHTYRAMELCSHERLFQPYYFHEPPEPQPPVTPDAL
The read-out pIC50 is expressed as -log10 of concentration in moles per litre.

q: Look up pIC50 for this molecule: CN1C(=O)[C@@H](N2CCc3cn(CC4CCS(=O)(=O)CC4)nc3C2=O)COc2ccccc21 [TP-030n]
a: 6.00

q: Param item: `CN1C(=O)[C@@H](N2CCc3cn(Cc4ccccc4)nc3C2=O)COc2ccccc21`
a: 6.00

###

test-system: Dual specificity testis-specific protein kinase 2 (Homo sapiens, UniProt Q96S53)
measure-name: pIC50
The read-out pIC50 is expressed as -log10 of concentration in moles per litre.

molecule	test-system	value
CN1C(=O)[C@@H](N2CCc3cn(CC4CCS(=O)(=O)CC4)nc3C2=O)COc2ccccc21 [TP-030n]	Dual specificity testis-specific protein kinase 2 (Homo sapiens, UniProt Q96S53)	6.00

Could you now look at the following molecule, please?
q: Look up pIC50 for this molecule: `CN1C(=O)[C@@H](N2CCc3cn(Cc4ccccc4)nc3C2=O)COc2ccccc21`
a: 6.00

###

Tyrosine-protein kinase Fes/Fps (Homo sapiens): recorded IC50 for assorted compounds
Answer format: numeric, nM implied, no suffix.

compound	measure-name	result-unit	value
CN1C(=O)[C@@H](N2CCc3cn(Cc4ccccc4)nc3C2=O)COc2ccccc21	IC50	nM	1000

Could you now look at the following compound, please?
q: Look up IC50 for this compound: CN1C(=O)[C@@H](N2CCc3cn(CC4CCS(=O)(=O)CC4)nc3C2=O)COc2ccccc21 [TP-030n]
a: 1000

###

test-system: UniProtKB Q15569
measure-name: IC50 (nM)
Answer format: numeric, nM implied, no suffix.

q: Look up IC50 for this molecule: CN1C(=O)[C@@H](N2CCc3cn(CC4CCS(=O)(=O)CC4)nc3C2=O)COc2ccccc21 [TP-030n]
a: 1000

###

test-system: Ephrin type-B receptor 4 (Homo sapiens)
Sequence (P54760 whole entry): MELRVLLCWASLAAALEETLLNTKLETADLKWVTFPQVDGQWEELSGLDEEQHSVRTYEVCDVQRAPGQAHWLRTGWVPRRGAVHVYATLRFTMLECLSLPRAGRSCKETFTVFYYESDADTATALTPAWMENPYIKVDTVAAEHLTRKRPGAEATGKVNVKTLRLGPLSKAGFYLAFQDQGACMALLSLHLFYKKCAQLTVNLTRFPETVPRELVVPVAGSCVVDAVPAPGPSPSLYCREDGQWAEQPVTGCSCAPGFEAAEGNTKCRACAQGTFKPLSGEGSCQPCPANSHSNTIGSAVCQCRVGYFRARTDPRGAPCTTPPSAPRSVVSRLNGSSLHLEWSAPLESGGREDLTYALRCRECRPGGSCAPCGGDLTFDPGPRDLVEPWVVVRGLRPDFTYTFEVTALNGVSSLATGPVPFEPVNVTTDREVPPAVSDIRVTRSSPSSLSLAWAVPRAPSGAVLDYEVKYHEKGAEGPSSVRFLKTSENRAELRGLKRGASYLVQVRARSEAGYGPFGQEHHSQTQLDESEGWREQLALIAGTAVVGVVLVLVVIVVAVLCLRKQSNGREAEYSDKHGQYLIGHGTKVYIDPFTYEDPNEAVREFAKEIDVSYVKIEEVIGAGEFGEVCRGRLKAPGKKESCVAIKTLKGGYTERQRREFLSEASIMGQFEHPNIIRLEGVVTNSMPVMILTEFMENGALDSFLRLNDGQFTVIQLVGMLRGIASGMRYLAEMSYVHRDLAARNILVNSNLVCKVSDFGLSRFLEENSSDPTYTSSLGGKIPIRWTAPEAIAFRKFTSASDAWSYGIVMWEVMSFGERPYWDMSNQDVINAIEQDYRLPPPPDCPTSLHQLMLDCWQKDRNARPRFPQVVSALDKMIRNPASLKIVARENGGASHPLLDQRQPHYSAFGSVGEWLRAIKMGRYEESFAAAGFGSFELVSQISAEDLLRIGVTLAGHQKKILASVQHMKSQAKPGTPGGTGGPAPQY
assay-procedure: EphB4(EPB4LGY1) Takeda global kinase panel
measure-name: IC50
Reply with the number and its unit after it.

compound	value
CN1C(=O)[C@@H](N2CCc3cn(Cc4ccccc4)nc3C2=O)COc2ccccc21	1000 nM

Could you now look at the following compound, please?
q: Look up IC50 for this compound: CN1C(=O)[C@@H](N2CCc3cn(CC4CCS(=O)(=O)CC4)nc3C2=O)COc2ccccc21 [TP-030n]
a: 1000 nM

###

test-system: Activin receptor type-1 (Homo sapiens)
List of pIC50 values.
The read-out pIC50 is expressed as -log10 of concentration in moles per litre.

compound	pIC50
CN1C(=O)[C@@H](N2CCc3cn(Cc4ccccc4)nc3C2=O)COc2ccccc21 [TP-030-1]	6.00

Could you now look at the following compound, please?
q: Look up pIC50 for this compound: CN1C(=O)[C@@H](N2CCc3cn(CC4CCS(=O)(=O)CC4)nc3C2=O)COc2ccccc21 [TP-030n]
a: 6.00

###

test-system: Cyclin-dependent kinase 14 (Homo sapiens)
Sequence (O94921 whole entry): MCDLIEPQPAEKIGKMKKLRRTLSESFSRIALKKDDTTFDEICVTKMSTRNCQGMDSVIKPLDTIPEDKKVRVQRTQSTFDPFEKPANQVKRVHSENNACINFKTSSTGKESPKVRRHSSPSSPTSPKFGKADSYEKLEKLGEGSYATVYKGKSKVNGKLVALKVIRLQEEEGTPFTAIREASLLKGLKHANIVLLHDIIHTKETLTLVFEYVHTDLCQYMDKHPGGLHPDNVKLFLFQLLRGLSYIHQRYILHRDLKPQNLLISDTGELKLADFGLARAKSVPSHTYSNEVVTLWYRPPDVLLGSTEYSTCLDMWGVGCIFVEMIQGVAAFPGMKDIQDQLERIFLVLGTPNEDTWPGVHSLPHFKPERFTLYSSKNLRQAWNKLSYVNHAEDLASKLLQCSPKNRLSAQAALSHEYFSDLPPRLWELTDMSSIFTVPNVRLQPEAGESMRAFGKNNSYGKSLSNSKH
List of pIC50 values.
The read-out pIC50 is expressed as -log10 of concentration in moles per litre.

molecule	value
CN1C(=O)[C@@H](N2CCc3cn(Cc4ccccc4)nc3C2=O)COc2ccccc21	6.00

Could you now look at the following molecule, please?
q: Look up pIC50 for this molecule: CN1C(=O)[C@@H](N2CCc3cn(CC4CCS(=O)(=O)CC4)nc3C2=O)COc2ccccc21 [TP-030n]
a: 6.00

###

test-system: cAMP-dependent protein kinase catalytic subunit alpha (Homo sapiens)
assay-procedure: PKAalpha(PRCALGH1) Takeda global kinase panel
measure-name: IC50
Reply with the number and its unit after it.

q: Look up IC50 for this compound: CN1C(=O)[C@@H](N2CCc3cn(CC4CCS(=O)(=O)CC4)nc3C2=O)COc2ccccc21 [TP-030n]
a: 1 µM

###

test-system: Tyrosine-protein kinase Fgr (Homo sapiens, UniProt P09769)
Sequence (P09769 whole entry): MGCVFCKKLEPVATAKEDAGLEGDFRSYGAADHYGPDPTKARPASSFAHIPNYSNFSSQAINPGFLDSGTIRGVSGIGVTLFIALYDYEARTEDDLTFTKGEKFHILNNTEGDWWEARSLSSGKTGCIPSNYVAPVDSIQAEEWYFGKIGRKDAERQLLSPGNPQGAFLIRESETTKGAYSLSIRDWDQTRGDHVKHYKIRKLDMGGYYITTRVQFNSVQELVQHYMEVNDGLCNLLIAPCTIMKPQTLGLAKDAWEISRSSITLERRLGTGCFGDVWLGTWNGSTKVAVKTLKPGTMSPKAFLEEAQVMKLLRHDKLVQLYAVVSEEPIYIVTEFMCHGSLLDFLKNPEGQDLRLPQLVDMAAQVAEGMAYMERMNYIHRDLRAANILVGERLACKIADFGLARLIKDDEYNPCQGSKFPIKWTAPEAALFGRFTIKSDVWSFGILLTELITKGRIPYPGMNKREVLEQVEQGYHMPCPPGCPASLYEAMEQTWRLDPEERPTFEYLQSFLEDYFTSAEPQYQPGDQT
measure-name: IC50 (nM)
Answer format: numeric, nM implied, no suffix.

molecule	result-unit	IC50
CN1C(=O)[C@@H](N2CCc3cn(CC4CCS(=O)(=O)CC4)nc3C2=O)COc2ccccc21 [TP-030n]	nM	1000

Could you now look at the following molecule, please?
q: Look up IC50 for this molecule: `CN1C(=O)[C@@H](N2CCc3cn(Cc4ccccc4)nc3C2=O)COc2ccccc21`
a: 1000
